test: TIMS collisional cross section (CCS, N2) of the lipid ion; higher = larger ion cross section; conditions: sample type: HeLa; ionization mode: positive; one isomer drawn
parameter: TIMS collisional cross section

Look up TIMS collisional cross section for this compound: CCCCCC/C=C\CCCCCCCC(=O)O[C@@H](COC(=O)CCCCCCC/C=C\CCCCCCCC)COC(=O)CCCCCCCCCCCC [TG 13:0_16:1_18:1] (ion (formula + adduct): [C50H92O6+NH4] 1+)
306.8 Å²

Entry to check: CCCCC/C=C\C/C=C\C/C=C\C/C=C\CCCC(=O)OC[C@H](COP(=O)(O)OCCN)OC(=O)CCCCCCCCCCCCC [PE 20:4@_14:0] (ion (formula + adduct): [C39H70NO8P+H] 1+)
270.2 Å²

Entry to check: CC/C=C\C/C=C\C/C=C\CCCCCCCC(=O)O[C@@H](CO)COC(=O)CCCCCCC/C=C\CCCCCCCC [DG 18:1_18:3_0:0] (ion (formula + adduct): [C39H68O5+NH4] 1+)
258.6 Å²

Entry to check: CCCCCCCCCCCCC/C=C/[C@@H](O)[C@H](COP(=O)([O-])OCC[N+](C)(C)C)NC(=O)CCCCCCCCCCCCCCC [SM d18:1_16:0@] (ion (formula + adduct): [C39H79N2O6P+H] 1+)
284.9 Å²

Entry to check: CCCCCCCC/C=C\CCCCCCCCCC(=O)OC[C@@H](COC(=O)CCCCCCCCCCCCCCCC)OC(=O)CCCCCCC/C=C\CCCCCCCC [TG 17:0_18:1_20:1] (ion (formula + adduct): [C58H108O6+NH4] 1+)
330.7 Å²

###

assay: TIMS collisional cross section (CCS, N2) of the lipid ion; higher = larger ion cross section; conditions: sample type: plasma; ionization mode: positive; one isomer drawn
parameter: TIMS collisional cross section (Å²)
Report the value in Å² with no unit label.

Look up TIMS collisional cross section for this compound: CCCCCCCC/C=C\CCCCCCCCCC(=O)OC[C@@H](COC(=O)CCCCCCC/C=C\CCCCCCCC)OC(=O)CCCCCCC/C=C\CCCCCCCC [TG 18:1_18:1_20:1] (ion (formula + adduct): [C59H108O6+NH4] 1+)
332.4

Entry to check: CCCCC/C=C\C/C=C\C/C=C\C/C=C\CCCC(=O)O[C@H](COCCCCCCCC/C=C\CCCCCCCC)COP(=O)([O-])OCC[N+](C)(C)C [PC O- 18:1@_20:4] (ion (formula + adduct): [C46H84NO7P+H] 1+)
294

Entry to check: CCCCCC/C=C/CCCCCCCCCC(=O)OC[C@H](CO)OC(=O)CCCCCCCCCCCCCCC [DG 18:1_16:0_0:0] (ion (formula + adduct): [C37H70O5+NH4] 1+)
263.1

Entry to check: CCCCCCCCCCCCCCCCCCCCCCCC(=O)N[C@@H](COP(=O)([O-])OCC[N+](C)(C)C)[C@H](O)CCCCCCCCCCCCCCC [SM d18:0_24:0@] (ion (formula + adduct): [C47H97N2O6P+H] 1+)
309.6

###

assay: TIMS collisional cross section (CCS, N2) of the lipid ion; higher = larger ion cross section; conditions: sample type: HeLa; ionization mode: positive; one isomer drawn
parameter: TIMS collisional cross section (Å²)
Report the value in Å² with no unit label.

Look up TIMS collisional cross section for this molecule: CCCCC/C=C\C/C=C\C/C=C\C/C=C\CCCCCC(=O)O[C@H](COC(=O)CCCCCCC/C=C\CCCCC)COP(=O)([O-])OCC[N+](C)(C)C [PC 15:1_22:4] (ion (formula + adduct): [C45H80NO8P+H] 1+)
290.2

Entry to check: CCCCCCCCCCCCCCCCCCOC[C@H](COP(=O)([O-])OCC[N+](C)(C)C)OC(=O)CCCCCCCCCCCCCCC [PC O- 18:0@_16:0] (ion (formula + adduct): [C42H86NO7P+H] 1+)
293.3

Entry to check: CCCCCCCCCCCCCCCCCC(=O)OCC(CO)OC(=O)CCCCCCCCCCCCCCCCC (stereo not drawn) [DG 18:0_18:0_0:0] (ion (formula + adduct): [C39H76O5+NH4] 1+)
272.2

###

test: TIMS collisional cross section (CCS, N2) of the lipid ion; higher = larger ion cross section; settings: sample type: Liver; ionization mode: positive; one isomer drawn
parameter: TIMS collisional cross section (Å²)
Report the value in Å² with no unit label.

Look up TIMS collisional cross section for this compound: CCCCC/C=C\C/C=C\CCCCCCCC(=O)OC[C@@H](COC(=O)CCCCCCCCCCCCC)OC(=O)CCCCCCCCCCCCCCC [TG 14:0_16:0_18:2] (ion (formula + adduct): [C51H94O6+NH4] 1+)
308.9

Entry to check: CCCCC/C=C\C/C=C\C/C=C\CCCCCCC(=O)O[C@H](COC(=O)CCCCCCCCCCCCCCCCCC)COP(=O)([O-])OCC[N+](C)(C)C [PC 19:0@_20:3] (ion (formula + adduct): [C47H88NO8P+H] 1+)
299.8

###

experiment: TIMS collisional cross section (CCS, N2) of the lipid ion; higher = larger ion cross section; details: sample type: Liver; ionization mode: positive; one isomer drawn
parameter: TIMS collisional cross section (Å²)
Report the value in Å² with no unit label.

Look up TIMS collisional cross section for this compound: CCCCCCCC/C=C\CCCCCCCC(=O)O[C@H](COC(=O)CCCCCCCCCCCCCCC)COP(=O)([O-])OCC[N+](C)(C)C [PC 16:0@_18:1] (ion (formula + adduct): [C42H82NO8P+H] 1+)
287.6

Entry to check: CCCCCCC/C=C\CCCCCCCC(=O)OC[C@@H](COC(=O)CCCCCCCCCCCCCCC)OC(=O)CCCCCCCCCCCCCCCC [TG 16:0_17:0_17:1] (ion (formula + adduct): [C53H100O6+NH4] 1+)
317.9

Entry to check: CCCCC/C=C\C/C=C\C/C=C\C/C=C\CCCC(=O)O[C@H](COC(=O)CCCCCCC/C=C\CCCCCCC)COP(=O)(O)OCCN [PE 17:1_20:4] (ion (formula + adduct): [C42H74NO8P+H] 1+)
275.6

Entry to check: CCCCC/C=C\C/C=C\C/C=C\C/C=C\CCCC(=O)O[C@H](CO/C=C\CCCCCCCCCCCCCC)COP(=O)(O)OCCN [PE P- 16:0@_20:4] (ion (formula + adduct): [C41H74NO7P+H] 1+)
273.9

Entry to check: CCCCCC/C=C\CCCCCCCC(=O)OC[C@H](COC(=O)CCCCCCCCC/C=C\CCCCCCCC)OC(=O)CCCCCCCCCCCCCCCCC [TG 16:1_18:0_20:1] (ion (formula + adduct): [C57H106O6+NH4] 1+)
328.2

Entry to check: CCCCC/C=C\C/C=C\C/C=C\C/C=C\CCCC(=O)O[C@H](COC(=O)CCCCCCCCCCCCCCCCC)COP(=O)([O-])OCC[N+](C)(C)C [PC 18:0_20:4] (ion (formula + adduct): [C46H84NO8P+H] 1+)
295.6

Entry to check: CCCCC/C=C\C/C=C\C/C=C\C/C=C\CCCC(=O)OC[C@@H](COC(=O)CCCCCCC/C=C\CCCCCCCC)OC(=O)CCCCCCC/C=C\C/C=C\CCCCC [TG 18:1_18:2_20:4] (ion (formula + adduct): [C59H100O6+NH4] 1+)
325.7

Entry to check: CC/C=C\C/C=C\C/C=C\C/C=C\C/C=C\CCCC(=O)O[C@H](COC(=O)CCCCCCCCCCCCCCC)COP(=O)([O-])OCC[N+](C)(C)C [PC 16:0_20:5] (ion (formula + adduct): [C44H78NO8P+H] 1+)
285.7

Entry to check: CCCCCC/C=C\CCCCCCCCCC(=O)O[C@H](CO)COP(=O)(O)OCCN [LPE 18:1] (ion (formula + adduct): [C23H46NO7P+H] 1+)
215.4

###

Field: TIMS collisional cross section. Provide a value for each of the compounds that follow.
assay: TIMS collisional cross section (CCS, N2) of the lipid ion; higher = larger ion cross section; details: sample type: Liver; ionization mode: positive; one isomer drawn
Report the value in Å² with no unit label.

Look up TIMS collisional cross section for this compound: CC/C=C\C/C=C\C/C=C\C/C=C\C/C=C\C/C=C\CCC(=O)OC[C@@H](COC(=O)CCCCCCCCCCCCCCC)OC(=O)CCCC/C=C\C/C=C\C/C=C\C/C=C\CC [TG 16:0_18:4_22:6] (ion (formula + adduct): [C59H94O6+NH4] 1+)
322.1

Entry to check: CCCC/C=C\CCCCCCCC(=O)OC[C@H](COC(=O)CCCCCCC/C=C\CCCCCC)OC(=O)CCCCCCCCCCCCCCC [TG 14:1_16:0_16:1] (ion (formula + adduct): [C49H90O6+NH4] 1+)
302.9

Entry to check: CC/C=C\C/C=C\C/C=C\CCCCCCCC(=O)O[C@@H](CO)COC(=O)CCCCCCCCCCCCCCC [DG 16:0_18:3_0:0] (ion (formula + adduct): [C37H66O5+NH4] 1+)
257.1

Entry to check: CCCCCCC/C=C\CCCCCCCC(=O)O[C@@H](COC(=O)CCCCCCC/C=C\CCCCCCCC)COC(=O)CCCCCCCCCCCCCCC [TG 16:0_17:1_18:1] (ion (formula + adduct): [C54H100O6+NH4] 1+)
319.35

Entry to check: CCCCC/C=C\C/C=C\C/C=C\C/C=C\CCCC(=O)OC[C@@H](O)COP(=O)([O-])OCC[N+](C)(C)C [LPC 20:4] (ion (formula + adduct): [C28H50NO7P+H] 1+)
230

Entry to check: C(OC(=O)CCCCCCC/C=C\C/C=C\CCCCC)[C@]([H])(OC(CCCCCCC/C=C\C/C=C\CCCCC)=O)COC(CCCCCCC/C=C\C/C=C\CCCCC)=O [TG 18:2_18:2_18:2] (ion (formula + adduct): [C57H98O6+NH4] 1+)
321.8

Entry to check: CCCCC/C=C\C/C=C\C/C=C\C/C=C\CCCC(=O)OC[C@@H](COC(=O)CCCCCCC/C=C\CCCCCCC)OC(=O)CCCCCCC/C=C\C/C=C\CCCCC [TG 17:1_18:2_20:4] (ion (formula + adduct): [C58H98O6+NH4] 1+)
322.8

Entry to check: CCCCC/C=C\C/C=C\CCCCCCCC(=O)OC[C@@H](COC(=O)CCCCCCC/C=C\CCCCCC)OC(=O)CCCCCCC/C=C\CCCCCCC [TG 16:1_17:1_18:2] (ion (formula + adduct): [C54H96O6+NH4] 1+)
313.9

Entry to check: CC/C=C\C/C=C\C/C=C\C/C=C\C/C=C\C/C=C\CCC(=O)OC[C@@H](COC(=O)CCCCCCC/C=C\CCCCCCCC)OC(=O)CCCCCCCCCCCCCCCCCCCCC [TG 18:1_22:0_22:6] (ion (formula + adduct): [C65H112O6+NH4] 1+)
344.7
